test system: HT29 colon; assay: NCI-60 one-dose screen, 48 h (100 = growth as untreated, 0 = no growth, -100 = all killed); settings: 10 µM unless noted
This is part of a sample that, as a whole, favours compounds with a hit. Of some 83,000 tested, about 20% had one in any assay.
Below, each of the compounds is paired with its reported growth value.
Write down the numeric answer in % and omit the unit.

Noted for `COc1ccc(/C=c2/c(=O)[nH]c3nc4sc(C)c(C)c4c(=O)n23)cc1` : its growth reads 88.1

Noted for C=C1CC[C@@H]2[C@](C)(COC(C)=O)[C@H](OC(C)=O)CC[C@@]2(C)[C@@H]1CC(Nc1ccc(S(=O)(=O)Nc2nc(C)cc(C)n2)cc1)C1=CCOC1=O (stereo partly specified) : its growth reads 46.2

Noted for `CSc1nc(NCCO)c(C#N)c(-c2cccc(N)c2)n1` : its growth reads 108

Noted for `Cc1cc(Nc2nc(N3CCOCC3)nc3ccccc23)n[nH]1` : its growth reads 68.4

Next:
Noted for `O=C1C(Cl)=C(Cl)C(=O)c2c1nc1n2CCCC1` : its growth reads 99.7

Noted for `CCC(=O)Oc1ccc(/C(=C(\C)c2ccccc2)c2ccc(OCCN(CC)CC)cc2)cc1` : its growth reads 7.83

Hey, just so you know, these numbers are from PubChem BioAssay (NCI).
